Cited source: the RNAGym collection of RNA variant scans (doi:10.7554/elife.80360)

B1: HDV Ribozyme (parent)
chain: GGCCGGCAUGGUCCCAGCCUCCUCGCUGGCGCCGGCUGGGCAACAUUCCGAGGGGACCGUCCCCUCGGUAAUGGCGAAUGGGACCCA

- Variants of: B1
- Protocol text: self-cleavage, relative activity (ratio to wild type); higher = more cleavage; co-transcriptional
Parameter measured: self-cleavage
Give bare numbers.

| Mutant designation | Observed value |
| --- | --- |
| G25C A71G | 0.131 |
| C57A G74U | 0.356 |
| A16C G82U | 0.201 |
| G1U C14G | 0.397 |
| C3U U23G | 0.743 |
| C26U C33G | 0.389 |
| C32G G34U | 0.0415 |
| G25A A70U | 0.17 |

Take each entry in turn and give its self-cleavage.
1. G34C C85G
2. G29C G74C
3. G28U G31A
4. C19A G76U
5. C33U C63U
6. C24A

A.
0.125
0.032
0.0554
0.262
0.845
0.767

Give self-cleavage for each listed item.
1. A45G A56C
2. G38C G54U
3. A16G U65G
4. G25C U37A
5. G53A A71G
6. C4U G5C

A.
1. 1.3
2. 0.185
3. 1.01
4. 0.0426
5. 0.941
6. 0.166
